Data origin, for the record: patent US12084513

- target of assay: T1, human C1s (human)
- T1 chain: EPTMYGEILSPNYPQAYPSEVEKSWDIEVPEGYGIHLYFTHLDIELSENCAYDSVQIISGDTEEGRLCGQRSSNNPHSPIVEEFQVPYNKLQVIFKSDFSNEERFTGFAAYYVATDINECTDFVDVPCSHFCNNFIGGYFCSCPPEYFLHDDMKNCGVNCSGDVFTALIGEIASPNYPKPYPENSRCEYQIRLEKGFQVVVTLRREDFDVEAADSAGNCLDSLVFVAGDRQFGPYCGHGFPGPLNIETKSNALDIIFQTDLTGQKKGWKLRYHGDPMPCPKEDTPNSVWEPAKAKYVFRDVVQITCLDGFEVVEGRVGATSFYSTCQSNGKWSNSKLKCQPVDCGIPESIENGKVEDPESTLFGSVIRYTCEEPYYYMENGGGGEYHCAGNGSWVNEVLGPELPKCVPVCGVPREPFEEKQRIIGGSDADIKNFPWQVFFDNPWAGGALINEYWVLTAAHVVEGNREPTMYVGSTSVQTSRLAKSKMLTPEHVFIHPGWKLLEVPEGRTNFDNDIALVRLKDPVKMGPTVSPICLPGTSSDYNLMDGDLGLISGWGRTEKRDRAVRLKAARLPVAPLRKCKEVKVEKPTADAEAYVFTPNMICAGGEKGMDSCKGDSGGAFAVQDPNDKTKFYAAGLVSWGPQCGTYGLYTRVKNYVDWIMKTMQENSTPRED
- experimental protocol: SPR pH 7.4 37C
assay endpoint: pKd
The scale used: pKd is minus the common logarithm of the concentration in molar units.

Known results for binders:
[
  {
    "binder": "IPN92H0033/IPN009VK3 (antibody, V domains shown) VH: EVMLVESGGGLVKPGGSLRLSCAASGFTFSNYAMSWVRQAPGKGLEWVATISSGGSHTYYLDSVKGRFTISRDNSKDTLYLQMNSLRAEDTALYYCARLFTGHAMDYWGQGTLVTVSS VL: QIVLTQSPATLSLSPGERATLSCTASSSVSSSYLHWYQQKPGKAPKLWIYSTSNLASGVPSRFSGSGSGTDYTLTISSLQPEDFATYYCHQYYRLPPITFGQGTKLEIK",
    "result number": 9.00
  },
  {
    "binder": "IPN92H0033/IPN93L0024 (antibody, V domains shown) VH: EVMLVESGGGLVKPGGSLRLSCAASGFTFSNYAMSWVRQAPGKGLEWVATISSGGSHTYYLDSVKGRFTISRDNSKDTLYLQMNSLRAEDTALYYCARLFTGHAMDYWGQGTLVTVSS VL: QIVLTQSPATLSLSPGERATLSCTASSSVSSSYLHWYQQKPGKAPKLWIYSTSNLASGVPSRFSGSGSGTDYTLTISSLQPEDFATYYCHQYYRLHPITFGQGTKLEIK",
    "result number": 8.60
  }
]

Problem: State, in one line, measured pKd of IPN92H0288/IPN93L0058 (antibody, V domains shown) VH: EVMLVESGGGLVKPGGSLRLSCAASGFTFSNYAMSWVRQAPGKGLEWVATISSGGSHTYELDSVDGRFTISRDNSKDTLYLQMNSLRAEDTALYYCARLFTKHAMDYWGQGTLVTVSS VL: QIVLTQSPATLSLSPGERATLSCTASSEVSSSYLHWYQQKPGKAPKLWIYSTSNLASGVPSRFSGSGSGTDYTLTISSLQPEDFATYYCHQYYRLHPITFGQGTKLEIK
Solution: 9.21
